Recorded values, source patent US20160237059A1.

- system_name: human CCR2 (Homo sapiens, UniProt P41597)
- Sequence (P41597 1-360 isoform P41597-2): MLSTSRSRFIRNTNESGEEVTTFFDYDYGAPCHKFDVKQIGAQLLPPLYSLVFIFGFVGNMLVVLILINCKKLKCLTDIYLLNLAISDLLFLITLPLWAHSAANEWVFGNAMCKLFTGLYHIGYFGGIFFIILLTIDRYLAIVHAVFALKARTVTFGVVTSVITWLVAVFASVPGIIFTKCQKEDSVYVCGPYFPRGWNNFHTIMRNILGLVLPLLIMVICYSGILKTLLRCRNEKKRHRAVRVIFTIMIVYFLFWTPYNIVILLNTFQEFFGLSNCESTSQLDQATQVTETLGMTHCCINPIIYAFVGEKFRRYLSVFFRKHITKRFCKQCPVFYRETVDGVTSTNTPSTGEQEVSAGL
- assay_procedure: Functional Ca2+ release test (B-1)
- condition_description: Chem-1 cell line transfected with human CCR2; 50% inhibition of the MCP-1 effect, MCP-1 at EC50 (about 5 nM); in some cases means of several determinations
Examples of compounds with documented IC50 follow.

{"structure_string": "CC(C)(C)Oc1ccnc(-c2nc(C(F)(F)F)c(Oc3ccc(Cl)c(Cl)c3)c(=O)[nH]2)c1", "unit_descriptor": "nM", "IC50": 62}
{"structure_string": "O=C(O)c1cc(O)n(-c2nc(C(F)(F)F)c(Cc3ccc(Cl)c(Cl)c3)c(=O)[nH]2)n1", "unit_descriptor": "nM", "IC50": 18}
{"structure_string": "CCCc1cc(-c2nc(C(F)(F)F)c(Oc3ccc(Cl)c(C(F)(F)F)c3)c(=O)[nH]2)no1", "unit_descriptor": "nM", "IC50": 4.6}
{"structure_string": "O=c1[nH]c(CC2CCOCC2)nc(C(F)(F)F)c1Cc1ccc(Cl)c(Cl)c1", "unit_descriptor": "nM", "IC50": 400}
{"structure_string": "CSc1ccnc(-c2nc(C(F)(F)F)c(Oc3ccc(Cl)c(C(F)(F)F)c3)c(=O)[nH]2)c1", "unit_descriptor": "nM", "IC50": 5}
{"structure_string": "O=c1[nH]c(-c2ncccc2-c2ccccc2)nc(C(F)(F)F)c1Oc1ccc(Cl)c(C(F)(F)F)c1", "unit_descriptor": "nM", "IC50": 1.5}
{"structure_string": "Cn1nc(Cc2nc(C(F)(F)F)c(Cc3ccc(Cl)c(Cl)c3)c(=O)[nH]2)[nH]c1=O", "unit_descriptor": "nM", "IC50": 180}

* * *

- system_name: human CCR2 (Homo sapiens)
- Sequence (P41597 1-360 isoform P41597-2): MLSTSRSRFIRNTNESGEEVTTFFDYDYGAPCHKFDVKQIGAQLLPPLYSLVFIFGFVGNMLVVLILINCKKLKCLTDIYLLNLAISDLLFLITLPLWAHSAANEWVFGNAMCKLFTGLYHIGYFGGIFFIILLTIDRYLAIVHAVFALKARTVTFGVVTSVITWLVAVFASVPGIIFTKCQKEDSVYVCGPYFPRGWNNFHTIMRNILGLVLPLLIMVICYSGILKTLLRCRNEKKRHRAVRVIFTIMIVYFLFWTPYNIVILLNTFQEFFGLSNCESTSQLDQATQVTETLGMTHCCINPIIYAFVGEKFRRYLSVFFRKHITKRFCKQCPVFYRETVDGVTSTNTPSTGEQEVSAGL
- assay_procedure: Functional Ca2+ release test (B-1)
- condition_description: Chem-1 cell line transfected with human CCR2; 50% inhibition of the MCP-1 effect, MCP-1 at EC50 (about 5 nM); in some cases means of several determinations
pIC50: −log10 of the molar value. Counter-ions that a name gives are not always drawn.
Threshold rule: pIC50 greater than or equal to 9 is rule met; below that, rule not met.

{"compound": "Nc1[nH]ncc1-c1nc(C(F)(F)F)c(Cc2ccc(Cl)c(Cl)c2)c(=O)[nH]1", "label": "rule not met"}
{"compound": "O=c1[nH]c(-c2ccsn2)nc(C(F)(F)F)c1Oc1ccc(Cl)c(C(F)(F)F)c1", "label": "rule met"}
{"compound": "O=c1[nH]c(-n2cccn2)nc(C(F)(F)F)c1Oc1ccc(Cl)c(Cl)c1", "label": "rule met"}
{"compound": "O=c1[nH]c(-c2n[nH]cc2Cl)nc(C(F)(F)F)c1Oc1ccc(Cl)c(C(F)(F)F)c1", "label": "rule not met"}
{"compound": "O=c1[nH]c(-c2cccc(O)n2)nc(C(F)(F)F)c1Oc1ccc(Cl)c(C(F)(F)F)c1", "label": "rule not met"}
{"compound": "Cn1ncc(-c2nc(C(F)(F)F)c(Cc3ccc(Cl)c(Cl)c3)c(=O)[nH]2)c1N", "label": "rule not met"}
{"compound": "O=c1[nH]c(-c2cccc(Cl)n2)nc(C(F)(F)F)c1Oc1ccc(Cl)c(C(F)(F)F)c1", "label": "rule not met"}
{"compound": "O=c1[nH]c(C2CCNCC2)nc(C(F)(F)F)c1Oc1ccc(Cl)c(C(F)(F)F)c1", "label": "rule not met"}
{"compound": "Nc1[nH]ncc1-c1nc(C(F)(F)F)c(Oc2ccc(Cl)c(Cl)c2)c(=O)[nH]1 [Example 62, trifluoroacetate]", "label": "rule not met"}
{"compound": "COc1cnccc1-c1nc(C(F)(F)F)c(Cc2ccc(Cl)c(Cl)c2)c(=O)[nH]1", "label": "rule not met"}
{"compound": "O=c1[nH]c(Cc2cccs2)nc(C(F)(F)F)c1Cc1ccc(Cl)c(Cl)c1", "label": "rule not met"}
{"compound": "Cn1ccc(-c2nc(C(F)(F)F)c(Oc3ccc(Cl)c(C(F)(F)F)c3)c(=O)[nH]2)n1", "label": "rule met"}
